This collection of values is drawn from the supplement of paper PMC9112550.

Reported shrunken log2 fold change values for a set of sequences
Test system: Escherichia coli TOP10;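 further: peptides expressed intracellularly from a pBAD plasmid library in pooled LB shake-flask culture, induced with 0.3% L-arabinose, DNA abundance read by NGS, three biological replicates, DESeq2 with apeglm shrinkage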
Assay: shrunken log2 fold change of peptide-encoding DNA abundance (4.5 h post-induction vs induction); higher = less antimicrobial activity (less host growth inhibition)
Settings: time post-induction: 4.5 h; library: site-saturation at positions 5, 18, 19, 20
ATTRIBUTE_MEASURED: shrunken log2 fold change

>>> recorded_value("RRIRNRPPRLPRPRPRPSFAPRP")
0.00213
>>> recorded_value("RRIRWRPPRLPRPRPRPPGWPRP")
0.527
>>> recorded_value("RRIRQRPPRLPRPRPRPYNIPRP")
-0.395
>>> recorded_value("RRIRFRPPRLPRPRPRPTCIPRP")
-0.13
>>> recorded_value("RRIRDRPPRLPRPRPRPHDNPRP")
-0.323
>>> recorded_value("RRIRPRPPRLPRPRPRPLDSPRP")
-0.0664
>>> recorded_value("RRIRNRPPRLPRPRPRPLHEPRP")
0.0748
>>> recorded_value("RRIRLRPPRLPRPRPRPEQEPRP")
-0.104
>>> recorded_value("RRIRERPPRLPRPRPRPTGQPRP")
-0.0359
>>> recorded_value("RRIRMRPPRLPRPRPRPGYNPRP")
-0.282
>>> recorded_value("RRIRARPPRLPRPRPRPVAYPRP")
0.0127
>>> recorded_value("RRIRMRPPRLPRPRPRPTISPRP")
0.0688
>>> recorded_value("RRIRERPPRLPRPRPRPLIEPRP")
-0.287
>>> recorded_value("RRIRIRPPRLPRPRPRPYNNPRP")
-0.462
>>> recorded_value("RRIRDRPPRLPRPRPRPPLAPRP")
0.448
>>> recorded_value("RRIRGRPPRLPRPRPRPTLGPRP")
0.936
>>> recorded_value("RRIRDRPPRLPRPRPRPERWPRP")
1.3
>>> recorded_value("RRIRLRPPRLPRPRPRPFTPPRP")
-0.265
>>> recorded_value("RRIRKRPPRLPRPRPRPITNPRP")
0.133
>>> recorded_value("RRIRGRPPRLPRPRPRPGYEPRP")
0.365
>>> recorded_value("RRIRIRPPRLPRPRPRPREHPRP")
-0.393
>>> recorded_value("RRIRLRPPRLPRPRPRPASVPRP")
-0.0571
>>> recorded_value("RRIRCRPPRLPRPRPRPGQMPRP")
-0.147
>>> recorded_value("RRIRKRPPRLPRPRPRPAGAPRP")
0.698
>>> recorded_value("RRIRHRPPRLPRPRPRPVPEPRP")
0.143
>>> recorded_value("RRIRKRPPRLPRPRPRPPQQPRP")
0.346
>>> recorded_value("RRIRTRPPRLPRPRPRPTIDPRP")
-0.319
>>> recorded_value("RRIRIRPPRLPRPRPRPMHRPRP")
-0.262
>>> recorded_value("RRIRKRPPRLPRPRPRPGFEPRP")
0.32
>>> recorded_value("RRIRCRPPRLPRPRPRPIAVPRP")
-0.0152
>>> recorded_value("RRIRSRPPRLPRPRPRPPSVPRP")
0.279
>>> recorded_value("RRIRMRPPRLPRPRPRPWSVPRP")
-0.0283
>>> recorded_value("RRIRFRPPRLPRPRPRPMGAPRP")
-0.0556
>>> recorded_value("RRIRYRPPRLPRPRPRPSKVPRP")
-1.04
>>> recorded_value("RRIRARPPRLPRPRPRPADEPRP")
0.678
>>> recorded_value("RRIRYRPPRLPRPRPRPKFSPRP")
-0.434
>>> recorded_value("RRIRLRPPRLPRPRPRPQGRPRP")
-0.136
>>> recorded_value("RRIRYRPPRLPRPRPRPTAKPRP")
0.0338
>>> recorded_value("RRIRSRPPRLPRPRPRPPLLPRP")
0.0398
>>> recorded_value("RRIRQRPPRLPRPRPRPSCQPRP")
-0.834
>>> recorded_value("RRIRVRPPRLPRPRPRPCWFPRP")
-0.106
>>> recorded_value("RRIRPRPPRLPRPRPRPGSWPRP")
0.941
>>> recorded_value("RRIRWRPPRLPRPRPRPEYPPRP")
0.208
>>> recorded_value("RRIRHRPPRLPRPRPRPKMFPRP")
-0.0772
>>> recorded_value("RRIRERPPRLPRPRPRPYKIPRP")
-0.266
>>> recorded_value("RRIRQRPPRLPRPRPRPVKYPRP")
-0.067
>>> recorded_value("RRIRMRPPRLPRPRPRPWCWPRP")
0.366
>>> recorded_value("RRIRERPPRLPRPRPRPIMKPRP")
-0.376
>>> recorded_value("RRIRRRPPRLPRPRPRPCLHPRP")
0.0897
>>> recorded_value("RRIRQRPPRLPRPRPRPRKMPRP")
-0.0294
>>> recorded_value("RRIRIRPPRLPRPRPRPSAKPRP")
-0.0328
>>> recorded_value("RRIRARPPRLPRPRPRPVAEPRP")
0.871
>>> recorded_value("RRIRARPPRLPRPRPRPVSYPRP")
-0.133
>>> recorded_value("RRIRARPPRLPRPRPRPRIQPRP")
0.505
>>> recorded_value("RRIRVRPPRLPRPRPRPSQRPRP")
-0.0119
>>> recorded_value("RRIRVRPPRLPRPRPRPCQGPRP")
-0.226
>>> recorded_value("RRIRFRPPRLPRPRPRPNRVPRP")
-0.0261
>>> recorded_value("RRIRKRPPRLPRPRPRPDVYPRP")
-0.0383
>>> recorded_value("RRIRTRPPRLPRPRPRPRSTPRP")
0.377
>>> recorded_value("RRIRERPPRLPRPRPRPKGNPRP")
0.139
>>> recorded_value("RRIRIRPPRLPRPRPRPRHNPRP")
-0.245
>>> recorded_value("RRIRKRPPRLPRPRPRPYYVPRP")
-0.197
>>> recorded_value("RRIRRRPPRLPRPRPRPVATPRP")
1.15
